- measurement_protocol: in vivo
- Design: species or system mice
- details: male, NODSCID 1L2RγKO, mouse, iv, total radioactivity, Kidneys uptake
observation_type: tissue uptake at 72 h (%ID/g)
Value expressed in %ID/g; do not type the unit.

Returns the measured tissue uptake at 72 h for the input molecule. Input: COc1ccc(CCCC(=O)NCC(=O)N[C@@H](CCCCNC(=O)CN2CCN(CC(=O)O)CCN(CC(=O)O)CCN(CC(=O)O)CC2)C(=O)NC[C@H]2CC[C@H](C(=O)N[C@@H](Cc3c4ccccc4cc4ccccc34)C(=O)NCCCC[C@H](NC(=O)N[C@@H](COCC(=O)O)C(=O)O)C(=O)O)CC2)cc1 [177Lu-HTK04028, metal not drawn]
1.77

Recorded tissue uptake at 72 h of O=C(O)CCC[C@H](NC(=O)N[C@@H](CCCCNC(=O)[C@H](Cc1c2ccccc2cc2ccccc12)NC(=O)[C@H]1CC[C@H](CNC(=O)[C@H](CCCCNC(=O)CN2CCN(CC(=O)O)CCN(CC(=O)O)CCN(CC(=O)O)CC2)NC(=O)CNC(=O)CCCc2ccc(Cl)cc2)CC1)C(=O)O)C(=O)O [177Lu-HTK03153, metal not drawn] , please.
4.95

// lookup tissue uptake at 72 h for COc1ccc(CCCC(=O)NCC(=O)N[C@@H](CCCCNC(=O)CN2CCN(CC(=O)O)CCN(CC(=O)O)CCN(CC(=O)O)CC2)C(=O)NC[C@H]2CC[C@H](C(=O)N[C@@H](Cc3c4ccccc4cc4ccccc34)C(=O)NCCCC[C@H](NC(=O)N[C@@H](CSCC(=O)O)C(=O)O)C(=O)O)CC2)cc1 [177Lu-HTK04048, metal not drawn]
2.28

What measured tissue uptake at 72 h goes with COc1ccc(CCCC(=O)NCC(=O)N[C@@H](CCCCNC(=O)CN2CCN(CC(=O)O)CCN(CC(=O)O)CCN(CC(=O)O)CC2)C(=O)NC[C@H]2CC[C@H](C(=O)N[C@@H](Cc3c4ccccc4cc4ccccc34)C(=O)NCCCC[C@H](NC(=O)N[C@@H](CCCC(=O)O)C(=O)O)C(=O)O)CC2)cc1 [177Lu-HTK03170, metal not drawn] ?
2.56

Entry O=C(O)CCC[C@H](NC(=O)N[C@@H](CCCCNC(=O)[C@H](Cc1c2ccccc2cc2ccccc12)NC(=O)[C@H]1CC[C@H](CNC(=O)CN2CCN(CC(=O)O)CCN(CC(=O)O)CCN(CC(=O)O)CC2)CC1)C(=O)O)C(=O)O [177Lu-HTK03149, metal not drawn] : reported tissue uptake at 72 h = ?
0.68

====

- measurement_protocol: in vivo
- Design: species or system mice
- details: male, NODSCID 1L2RγKO, mouse, iv, total radioactivity, Muscle uptake
observation_type: tissue uptake at 120 h (%ID/g)
All answers are understood in %ID/g, so give the number only.

Data request, read-out tissue uptake at 120 h, for COc1ccc(CCCC(=O)NCC(=O)N[C@@H](CCCCNC(=O)CN2CCN(CC(=O)O)CCN(CC(=O)O)CCN(CC(=O)O)CC2)C(=O)NC[C@H]2CC[C@H](C(=O)N[C@@H](Cc3c4ccccc4cc4ccccc34)C(=O)NCCCC[C@H](NC(=O)N[C@@H](CSCC(=O)O)C(=O)O)C(=O)O)CC2)cc1 [177Lu-HTK04048, metal not drawn]
0.05

Would you mind telling me what tissue uptake at 120 h value was observed for O=C(O)CCC[C@H](NC(=O)N[C@@H](CCCCNC(=O)[C@H](Cc1c2ccccc2cc2ccccc12)NC(=O)[C@H]1CC[C@H](CNC(=O)[C@H](CCCCNC(=O)CN2CCN(CC(=O)O)CCN(CC(=O)O)CCN(CC(=O)O)CC2)NC(=O)CNC(=O)CCCc2ccc(Cl)cc2)CC1)C(=O)O)C(=O)O [177Lu-HTK03153, metal not drawn] ?
0.07

Looking for the measured tissue uptake at 120 h of COc1ccc(CCCC(=O)NCC(=O)N[C@@H](CCCCNC(=O)CN2CCN(CC(=O)O)CCN(CC(=O)O)CCN(CC(=O)O)CC2)C(=O)NC[C@H]2CC[C@H](C(=O)N[C@@H](Cc3c4ccccc4cc4ccccc34)C(=O)NCCCC[C@H](NC(=O)N[C@@H](COCC(=O)O)C(=O)O)C(=O)O)CC2)cc1 [177Lu-HTK04028, metal not drawn] , can you help?
0.02

Entry under review: O=C(O)CCC[C@H](NC(=O)N[C@@H](CCCCNC(=O)[C@H](Cc1c2ccccc2cc2ccccc12)NC(=O)[C@H]1CC[C@H](CNC(=O)CN2CCN(CC(=O)O)CCN(CC(=O)O)CCN(CC(=O)O)CC2)CC1)C(=O)O)C(=O)O [177Lu-HTK03149, metal not drawn] . Reported tissue uptake at 120 h?
0.01

GET /values?readout=tissue uptake at 120 h&item= COc1ccc(CCCC(=O)NCC(=O)N[C@@H](CCCCNC(=O)CN2CCN(CC(=O)O)CCN(CC(=O)O)CCN(CC(=O)O)CC2)C(=O)NC[C@H]2CC[C@H](C(=O)N[C@@H](Cc3c4ccccc4cc4ccccc34)C(=O)NCCCC[C@H](NC(=O)N[C@@H](CCCC(=O)O)C(=O)O)C(=O)O)CC2)cc1 [177Lu-HTK03170, metal not drawn]
0.01

====

- measurement_protocol: in vivo
- Parameters: species or system mice
- details: male, NODSCID 1L2RγKO, mouse, iv, total radioactivity, Blood uptake
observation_type: tissue uptake at 1 h (%ID/g)
Only the number, expressed in %ID/g, is required.

Given the compound O=C(O)CCC[C@H](NC(=O)N[C@@H](CCCCNC(=O)[C@H](Cc1c2ccccc2cc2ccccc12)NC(=O)[C@H]1CC[C@H](CNC(=O)[C@H](CCCCNC(=O)CN2CCN(CC(=O)O)CCN(CC(=O)O)CCN(CC(=O)O)CC2)NC(=O)CNC(=O)CCCc2ccc(Cl)cc2)CC1)C(=O)O)C(=O)O [177Lu-HTK03153, metal not drawn] , what is its reported tissue uptake at 1 h?
24.7

Give the measured tissue uptake at 1 h of COc1ccc(CCCC(=O)NCC(=O)N[C@@H](CCCCNC(=O)CN2CCN(CC(=O)O)CCN(CC(=O)O)CCN(CC(=O)O)CC2)C(=O)NC[C@H]2CC[C@H](C(=O)N[C@@H](Cc3c4ccccc4cc4ccccc34)C(=O)NCCCC[C@H](NC(=O)N[C@@H](CCCC(=O)O)C(=O)O)C(=O)O)CC2)cc1 [177Lu-HTK03170, metal not drawn] .
16.9

Please give the measured tissue uptake at 1 h for this compound: O=C(O)CCC[C@H](NC(=O)N[C@@H](CCCCNC(=O)[C@H](Cc1c2ccccc2cc2ccccc12)NC(=O)[C@H]1CC[C@H](CNC(=O)CN2CCN(CC(=O)O)CCN(CC(=O)O)CCN(CC(=O)O)CC2)CC1)C(=O)O)C(=O)O [177Lu-HTK03149, metal not drawn]
0.88

I'd like to know its tissue uptake at 1 h. The compound in question is COc1ccc(CCCC(=O)NCC(=O)N[C@@H](CCCCNC(=O)CN2CCN(CC(=O)O)CCN(CC(=O)O)CCN(CC(=O)O)CC2)C(=O)NC[C@H]2CC[C@H](C(=O)N[C@@H](Cc3c4ccccc4cc4ccccc34)C(=O)NCCCC[C@H](NC(=O)N[C@@H](COCC(=O)O)C(=O)O)C(=O)O)CC2)cc1 [177Lu-HTK04028, metal not drawn]
17.7

Would you mind telling me what tissue uptake at 1 h value was observed for COc1ccc(CCCC(=O)NCC(=O)N[C@@H](CCCCNC(=O)CN2CCN(CC(=O)O)CCN(CC(=O)O)CCN(CC(=O)O)CC2)C(=O)NC[C@H]2CC[C@H](C(=O)N[C@@H](Cc3c4ccccc4cc4ccccc34)C(=O)NCCCC[C@H](NC(=O)N[C@@H](CSCC(=O)O)C(=O)O)C(=O)O)CC2)cc1 [177Lu-HTK04048, metal not drawn] ?
17.7

====

Would you mind telling me the reported tissue uptake at 120 h of each entry?
- measurement_protocol: in vivo
- Set-up: species or system mice
- details: male, NODSCID 1L2RγKO, mouse, iv, total radioactivity, Liver uptake
Response body: numeric value in %ID/g, unit text excluded.

Form field: reported tissue uptake at 120 h of O=C(O)CCC[C@H](NC(=O)N[C@@H](CCCCNC(=O)[C@H](Cc1c2ccccc2cc2ccccc12)NC(=O)[C@H]1CC[C@H](CNC(=O)[C@H](CCCCNC(=O)CN2CCN(CC(=O)O)CCN(CC(=O)O)CCN(CC(=O)O)CC2)NC(=O)CNC(=O)CCCc2ccc(Cl)cc2)CC1)C(=O)O)C(=O)O [177Lu-HTK03153, metal not drawn]
0.4

Item under review: COc1ccc(CCCC(=O)NCC(=O)N[C@@H](CCCCNC(=O)CN2CCN(CC(=O)O)CCN(CC(=O)O)CCN(CC(=O)O)CC2)C(=O)NC[C@H]2CC[C@H](C(=O)N[C@@H](Cc3c4ccccc4cc4ccccc34)C(=O)NCCCC[C@H](NC(=O)N[C@@H](CSCC(=O)O)C(=O)O)C(=O)O)CC2)cc1 [177Lu-HTK04048, metal not drawn] . Reported tissue uptake at 120 h?
0.22

Ref: patent US11504441B2
